src = PubChem BioAssay (NCI)

tested on: EKVX NSCLC; experiment: NCI tumour cell line growth inhibition, 48 h
experimental.endpoint: TGI

Take a look at these entries with their results.
Return TGI for the following compound: `COc1cc(C2=C(C)[C@@H]3CN(CC=C3c3ccc(Cl)cc3)C2)c(S(=O)(=O)O)cc1OC`
> 100 µM

Return TGI for the following compound: `COc1ccc2c(O)c(/C=C3\N=Nc4ncccc43)oc2c1C[C@H]1CCNC[C@H]1F`
9.62 µM

Return TGI for the following compound: CCCCC1C(=O)N(c2ccc(S(=O)(=O)Nc3ccccn3)cc2)N(c2ccc(O)c(C(=O)O)c2)C1=O (stereo not given)
> 100 µM

Return TGI for the following compound: `Cc1nc2c(=O)n(C)c(=O)nc-2n(CCO)c1C`
> 100 µM

Alright, here's another compound for you.
Return TGI for the following compound: CC(C)c1cccc(C(C)C)c1NC(=O)C(=O)CC(=O)CC(c1ccccc1)c1c(O)c2ccccc2oc1=O (stereo not given)
> 100 µM
